This collection of values is drawn from ChEMBL document CHEMBL1124366.

Tested on: Enterococcus faecalis
Assay: In vitro minimum inhibitory concentration against Streptococcus faecalis ATCC 7080
Format: functional
recorded-endpoint: MIC
Give the number first and the unit second.

smiles-entry	MIC
N[C@H]1C(=O)N[C@@H]2Cc3ccc(c(Cl)c3)Oc3cc4cc(c3O)Oc3ccc(cc3Cl)[C@@H](O)[C@@H]3NC(=O)[C@H](NC(=O)[C@@H]4NC(=O)[C@@H](NC2=O)c2cc(O)cc(c2)Oc2cc1ccc2O)c1ccc(O)c(c1)-c1c(O)cc(O)cc1[C@@H](C(=O)NCCN1CCOCC1)NC3=O	0.12 mg/L

# input for lookup
Noted for CN(C)CCCCCCCNC(=O)[C@H]1NC(=O)[C@H]2NC(=O)[C@H](NC(=O)[C@@H]3NC(=O)[C@H]4NC(=O)[C@@H](Cc5ccc(c(Cl)c5)Oc5cc3cc(c5O)Oc3ccc(cc3Cl)[C@H]2O)NC(=O)[C@H](N)c2ccc(O)c(c2)Oc2cc(O)cc4c2)c2ccc(O)c(c2)-c2c(O)cc(O)cc21 : its MIC reads 0.12 mg/L

###

Each entry below lists one item and its recorded MIC value.
Tested on: Enterococcus faecalis
Test: In vitro minimum inhibitory concentration against Streptococcus faecalis ATCC 7080
Assay type: functional
// note: answer is a bare numeric in µg/mL

Consider the worked cases shown below.
compound	unit-abbrev	measurement
CC(=O)NC1C(O[C@@H]2c3ccc(c(Cl)c3)Oc3cc4cc(c3O)Oc3ccc(cc3Cl)C[C@H]3NC(=O)[C@H](N)c5ccc(O)c(c5)Oc5cc(O)cc(c5)[C@H](NC3=O)C(=O)N[C@H]4C(=O)N[C@H]3C(=O)N[C@@H]2C(=O)N[C@H](C(=O)NCCN2CCCC2)c2cc(O)cc(O)c2-c2cc3ccc2O)OC(CO)C(O)C1O (stereo partly drawn)	µg/mL	0.5
CCCCN(CCCC)CCCNC(=O)[C@H]1NC(=O)[C@H]2NC(=O)[C@H](NC(=O)[C@@H]3NC(=O)[C@H]4NC(=O)[C@@H](Cc5ccc(c(Cl)c5)Oc5cc3cc(c5O)Oc3ccc(cc3Cl)[C@H]2O)NC(=O)[C@H](N)c2ccc(O)c(c2)Oc2cc(O)cc4c2)c2ccc(O)c(c2)-c2c(O)cc(O)cc21	µg/mL	0.12

Measured MIC of CCN(CC)CCCNC(=O)[C@H]1NC(=O)[C@H]2NC(=O)[C@H](NC(=O)[C@@H]3NC(=O)[C@H]4NC(=O)[C@@H](Cc5ccc(c(Cl)c5)Oc5cc3cc(c5O[C@@H]3O[C@@H](CO)[C@@H](O)[C@H](O)[C@@H]3NC(=O)CCCCCCC(C)C)Oc3ccc(cc3Cl)[C@H]2O[C@@H]2O[C@@H](CO)[C@@H](O)[C@H](O)[C@@H]2NC(C)=O)NC(=O)[C@H](N)c2ccc(O)c(c2)Oc2cc(O)cc4c2)c2ccc(O)c(c2)-c2c(O[C@H]3O[C@H](CO)[C@@H](O)[C@@H](O)[C@@H]3O)cc(O)cc21 : 0.12

###

Reported values of MIC for individual entries
System: Pseudomonas aeruginosa
Assay: In vitro minimum inhibitory concentration against Pseudomonas aeruginosa ATCC 10145
Assay type: functional
Give the value in µg/mL but do not write µg/mL after it.

molecule	MIC [µg/mL]
NCCNC(=O)[C@H]1NC(=O)[C@H]2NC(=O)[C@H](NC(=O)[C@@H]3NC(=O)[C@H]4NC(=O)[C@@H](Cc5ccc(c(Cl)c5)Oc5cc3cc(c5O)Oc3ccc(cc3Cl)[C@H]2O)NC(=O)[C@H](N)c2ccc(O)c(c2)Oc2cc(O)cc4c2)c2ccc(O)c(c2)-c2c(O)cc(O)cc21	16
NCCCCCCNC(=O)[C@H]1NC(=O)[C@H]2NC(=O)[C@H](NC(=O)[C@@H]3NC(=O)[C@H]4NC(=O)[C@@H](Cc5ccc(c(Cl)c5)Oc5cc3cc(c5O)Oc3ccc(cc3Cl)[C@H]2O)NC(=O)[C@H](N)c2ccc(O)c(c2)Oc2cc(O)cc4c2)c2ccc(O)c(c2)-c2c(O)cc(O)cc21	64
NCCCNC(=O)[C@H]1NC(=O)[C@H]2NC(=O)[C@H](NC(=O)[C@@H]3NC(=O)[C@H]4NC(=O)[C@@H](Cc5ccc(c(Cl)c5)Oc5cc3cc(c5O)Oc3ccc(cc3Cl)[C@H]2O)NC(=O)[C@H](N)c2ccc(O)c(c2)Oc2cc(O)cc4c2)c2ccc(O)c(c2)-c2c(O)cc(O)cc21	32
N[C@H]1C(=O)N[C@@H]2Cc3ccc(c(Cl)c3)Oc3cc4cc(c3O)Oc3ccc(cc3Cl)[C@@H](O)[C@@H]3NC(=O)[C@H](NC(=O)[C@@H]4NC(=O)[C@@H](NC2=O)c2cc(O)cc(c2)Oc2cc1ccc2O)c1ccc(O)c(c1)-c1c(O)cc(O)cc1[C@@H](C(=O)NC1CN2CCC1CC2)NC3=O (some centres undefined)	32
CCNCCNC(=O)[C@H]1NC(=O)[C@H]2NC(=O)[C@H](NC(=O)[C@@H]3NC(=O)[C@H]4NC(=O)[C@@H](Cc5ccc(c(Cl)c5)Oc5cc3cc(c5O)Oc3ccc(cc3Cl)[C@H]2O)NC(=O)[C@H](N)c2ccc(O)c(c2)Oc2cc(O)cc4c2)c2ccc(O)c(c2)-c2c(O)cc(O)cc21	32
CNCCNC(=O)[C@H]1NC(=O)[C@H]2NC(=O)[C@H](NC(=O)[C@@H]3NC(=O)[C@H]4NC(=O)[C@@H](Cc5ccc(c(Cl)c5)Oc5cc3cc(c5O)Oc3ccc(cc3Cl)[C@H]2O)NC(=O)[C@H](N)c2ccc(O)c(c2)Oc2cc(O)cc4c2)c2ccc(O)c(c2)-c2c(O)cc(O)cc21	32

# ---- query molecule ----
Notebook: N[C@H]1C(=O)N[C@@H]2Cc3ccc(c(Cl)c3)Oc3cc4cc(c3O)Oc3ccc(cc3Cl)[C@@H](O)[C@@H]3NC(=O)[C@H](NC(=O)[C@@H]4NC(=O)[C@@H](NC2=O)c2cc(O)cc(c2)Oc2cc1ccc2O)c1ccc(O)c(c1)-c1c(O)cc(O)cc1[C@@H](C(=O)NCCCN1CCOCC1)NC3=O , MIC read as 32
